These entries and their values trace back to patent US6914045B2.

Tested on: Enterococcus sp.
Measurement Protocol: in vitro antibacterial evaluation, MIC by broth dilution
Type: cell-based
Measurement Setup: broth dilution, inoculum 5×10^5 CFU/mL, 18 hours at 35° C.; strain ATCC 29212
Friendly reminder: MIC Enterococcus faecalis (ATCC 29212) below 8 µg/mL is rule met, at or above is rule not met.

{"columns": ["Molecule", "Target Desc", "Label"],
 "data": [
  ["CC(c1ccccc1)C1NC(=O)CNC(=O)C(CO)NC(=O)C(C(O)C2CN(Cc3ccc(C(F)(F)F)cc3)C(=N)N2C2OC(CO)C(O)C(O)C2O)NC(=O)C(C(O)C2CNC(=N)N2)NC(=O)C(Cc2ccc(OC3OC(CO)C(OC4OC5COC6(OC5C(O)C4O)C4CC5CC(C4)CC6C5)C(O)C3O)cc2)NC1=O (centres unmarked)", "Enterococcus sp.", "rule not met"],
  ["N=C1NCC(C(O)C2NC(=O)C(Cc3ccc(OC4OC(CO)C(OC5OC6COC(Cc7ccccc7)OC6C(O)C5O)C(O)C4O)cc3)NC(=O)C(CC3CCCCC3)NC(=O)CNC(=O)C(CO)NC(=O)C(C(O)C3CNC(=N)N3C3OC(CO)C(O)C(O)C3O)NC2=O)N1 (centres unmarked)", "Enterococcus sp.", "rule met"],
  ["CC(c1ccccc1)C1NC(=O)CNC(=O)C(CO)NC(=O)C(C(O)C2CNC(=N)N2C2OC(CO)C(O)C(O)C2O)NC(=O)C(C(O)C2CNC(=N)N2)NC(=O)C(Cc2ccc(OC3OC(CO)C(OC4OC5COC(c6cccc(-c7ccccc7)c6)OC5C(O)C4O)C(O)C3O)cc2)NC1=O (centres unmarked)", "Enterococcus sp.", "rule met"],
  ["CC(C1CCCCC1)C1NC(=O)CNC(=O)C(CO)NC(=O)C(C(O)C2CNC(=N)N2C2OC(CO)C(O)C(O)C2O)NC(=O)C(C(O)C2CNC(=N)N2)NC(=O)C(Cc2ccc(OC3OC(CO)C(OC4OC5COC6(OC5C(O)C4O)C4CC5CC(C4)CC6C5)C(O)C3O)cc2)NC1=O (centres unmarked)", "Enterococcus sp.", "rule met"]
]}

Req: Is 8 µg/mL strictly greater than the molecule's reported MIC Enterococcus faecalis (ATCC 29212)? molecule: CC(c1ccc(Cl)cc1)C1NC(=O)CNC(=O)C(CO)NC(=O)C(C(O)C2CNC(=N)N2C2OC(CO)C(O)C(O)C2O)NC(=O)C(C(O)C2CNC(=N)N2)NC(=O)C(Cc2ccc(OC3OC(CO)C(OC4OC5COC(C6CCCCC6)OC5C(O)C4O)C(O)C3O)cc2)NC1=O (centres unmarked)
Resp: rule met

Req: Is 8 µg/mL strictly greater than the molecule's reported MIC Enterococcus faecalis (ATCC 29212)? molecule: CC(c1ccccc1)C1NC(=O)CNC(=O)C(CO)NC(=O)C(C(O)C2CNC(=N)N2C2OC(CO)C(O)C3OC(C)(C)OC32)NC(=O)C(C(O)C2CNC(=N)N2)NC(=O)C(Cc2ccc(OC3OC(CO)C(OC4OC(CO)C(O)C(O)C4O)C4OC(C)(C)OC34)cc2)NC1=O (centres unmarked)
Resp: rule not met

###

System: Staphylococcus sp.
Measurement Protocol: in vitro antibacterial evaluation, MIC by broth dilution
Type: cell-based
Measurement Setup: strain GC 6257; broth dilution, 18 hours at 35° C.
Excerpt: Methods for in vitro Antibacterial Evaluation (Table 1) […]
Parameter: MIC Coagulase Negative Staphylococcus (GC 6257)

Known MIC Coagulase Negative Staphylococcus (GC 6257) results, listed for orientation:
{"columns": ["Compound", "Target Desc", "Test Result"],
 "data": [
  ["CC(c1ccccc1)C1NC(=O)CNC(=O)C(CO)NC(=O)C(C(O)C2CNC(=N)N2C2OC(CO)C(O)C(O)C2O)NC(=O)C(C(O)C2CNC(=N)N2)NC(=O)C(Cc2ccc(OC3OC(CO)C(OC4OC5COC(C)(c6ccc(F)cc6)OC5C(O)C4O)C(O)C3O)cc2)NC1=O (stereo not shown) [Example 216]", "Staphylococcus sp.", "1 µg/mL"],
  ["CC(C)=CCCC(C)=CCCC(C)=CCOc1cccc(C2OCC3OC(OC4C(CO)OC(Oc5ccc(CC6NC(=O)C(C(C)c7ccccc7)NC(=O)CNC(=O)C(CO)NC(=O)C(C(O)C7CNC(=N)N7C7OC(CO)C(O)C(O)C7O)NC(=O)C(C(O)C7CNC(=N)N7)NC6=O)cc5)C(O)C4O)C(O)C(O)C3O2)c1 (stereo not shown) [Example 185]", "Staphylococcus sp.", ">64 µg/mL"],
  ["CC(C)C(=O)Nc1cc(CC2NC(=O)C(C(C)c3ccccc3)NC(=O)CNC(=O)C(CO)NC(=O)C(C(O)C3CNC(=N)N3C3OC(CO)C(O)C(O)C3O)NC(=O)C(C(O)C3CNC(=N)N3)NC2=O)ccc1O (stereo not shown) [Example 15]", "Staphylococcus sp.", ">128 µg/mL"]
]}

Now look at this one.
Req: Look up and state reported MIC Coagulase Negative Staphylococcus (GC 6257) for CCC(=O)Nc1cc(CC2NC(=O)C(C(C)c3ccccc3)NC(=O)CNC(=O)C(CO)NC(=O)C(C(O)C3CNC(=N)N3C3OC(CO)C(O)C(O)C3O)NC(=O)C(C(O)C3CNC(=N)N3)NC2=O)ccc1O (stereo not shown) [Example 14]
Resp: >128 µg/mL
